# target-of-assay: JAK3 JH1 catalytic (human)
# method: KINOMEscan competition binding
# conditions-used: compound 10.0 µM
List of kinase still bound, per cent of control values.
// return numeric value only (unit: %, not printed)

>>> numeric_readout("CC(=O)c1c(C)c2cnc(Nc3ccc(N4CCNCC4)cn3)nc2n(C2CCCC2)c1=O")
8.5

Query: Determine from records and report kinase still bound, per cent of control for CCOc1cc(N2CCC(O)CC2)ccc1Nc1ncc2c(n1)N(C)c1ccccc1C(=O)N2C
Reply: 100

Query: Determine from records and report kinase still bound, per cent of control for Cc1cn(-c2cc(C(=O)Nc3ccc(C)c(NC(=O)c4ccno4)c3)cc(C(F)(F)F)c2)cn1
Reply: 100

Query: Determine from records and report kinase still bound, per cent of control for COc1cc(C)c(Sc2cnc(NC(=O)c3ccc(CNC(C)C(C)C)cc3)s2)cc1C(=O)N1CCN(C(C)=O)CC1 (centres undefined)
Reply: 100
